Test system: human follicular lymphoma cell line DOHH-2
Test: In vitro cell growth inhibition test (CellTiter-Fluor), DOHH-2
Type: cell-based
Conditions: Homo sapiens, DOHH-2, 120 h, read-out: IC50 value of bendamustine in each concentration of compound A, compound A 0 nM (bendamustine alone); DOHH-2, 1000 cells/well, 120 hours
ASSAY_ENDPOINT: IC50 (µM)

>>> reported("Cn1c(CCCC(=O)O)nc2cc(N(CCCl)CCCl)ccc21 [Bendamustine]")
9.87

These data points were gathered from patent US12220410B2.
